System: NCI-H23 lung
assay-name: NCI-60 one-dose screen, 48 h (100 = growth as untreated, 0 = no growth, -100 = all killed)
reported-conditions: 10 µM unless noted
About 83,000 compounds went through this panel and 20% of them were active in at least one assay; those are over-represented in the sample as a whole. Active and inactive are the calls of the source. Rule for the calls: active = growth percent below 10; inactive = the rest.
Recorded growth for the following molecules
assay-metric: growth

[
  {
    "molecule": "CS(=O)(=O)Nc1cc(-c2ccc3ncnc(Nc4ccc(OCc5cccnc5)c(Cl)c4)c3c2)cnc1Cl",
    "measured-result": "-26.9% (active)"
  },
  {
    "molecule": "COc1ccc2oc(=O)c(-c3csc(N/N=C(\\C)c4cc(OC)c(OC)c(OC)c4)n3)cc2c1",
    "measured-result": "84% (inactive)"
  },
  {
    "molecule": "COc1ccc(N=Nc2c(N)nn3c(-c4cc5ccccc5oc4=O)ccnc23)cc1",
    "measured-result": "36.6% (inactive)"
  },
  {
    "molecule": "O=C(N/N=C/c1ccc(Br)o1)c1[nH]c2ccc(Br)cc2c1-c1ccccc1",
    "measured-result": "-37% (active)"
  },
  {
    "molecule": "COc1cccc(C(N)=Nc2ccc(OCCCCCCCCn3cncn3)cc2)c1",
    "measured-result": "9.5% (active)"
  },
  {
    "molecule": "COC(=O)c1c(C(=O)OC)c2ccc3c4ccccc4ccc3n2c1C(=O)OC",
    "measured-result": "102% (inactive)"
  },
  {
    "molecule": "Nc1nnc(-c2cncc(Br)c2)c(-c2c[nH]c3ccc(Br)cc23)n1",
    "measured-result": "70.7% (inactive)"
  },
  {
    "molecule": "O=C(Nc1ccc(Cl)c(C(F)(F)F)c1)N1CCN(c2cc(-c3cn(-c4ccccc4)nc3-c3cccc(O)c3)ccn2)CC1",
    "measured-result": "-27.3% (active)"
  },
  {
    "molecule": "C/C(=N\\Nc1ccc(C(=O)O)cc1)c1cnn(-c2cc(=O)[nH]c3ccc(C)cc23)c1C",
    "measured-result": "106% (inactive)"
  },
  {
    "molecule": "COc1ccc2[nH]c(O)c(N=Nc3nc(-c4ccc(C#N)cc4)cs3)c2c1",
    "measured-result": "55.9% (inactive)"
  },
  {
    "molecule": "Fc1cccc(CNc2nc(SCCN3CCOCC3)nc3c2cnn3CC(Cl)c2ccc(Br)cc2)c1 (configuration not stated)",
    "measured-result": "46.2% (inactive)"
  },
  {
    "molecule": "CCOC(=O)/C(F)=C/C1CC1CCc1ccc(OCC)cc1 (configuration not stated)",
    "measured-result": "87.3% (inactive)"
  }
]
